Experimental Details: Cytotoxicity to L929 cells (XTT)
Format: cell-based
Condition Info: mouse, L929 cells, GEKG dilution 1/256
Peptide text beside a SMILES is read from it.
Value Type: cytotoxicity at 24 h (%)

Compound | Experimental Result
NCCCC[C@H](NC(=O)[C@H](CCC(=O)O)NC(=O)CN)C(=O)NCC(=O)O [GEKG] (H-GEKG-OH) | -4.61

* * *

Experimental Details: Cytotoxicity to L929 cells (XTT)
Type: cell-based
Condition Info: mouse, L929 cells, GEKG dilution 1/16
Peptide text beside a SMILES is read from it.
Value Type: cytotoxicity at 24 h

Compound | Experimental Result
NCCCC[C@H](NC(=O)[C@H](CCC(=O)O)NC(=O)CN)C(=O)NCC(=O)O [GEKG] (H-GEKG-OH) | -12.3%
